Each entry below lists one item and its recorded TP value.
Organism: Rattus norvegicus
protocol-description: Open TG-GATES - Regimen: Single
Assay type: toxicity, organism-based, Sprague-Dawley
Design: regimen Single, gender Male, age 6 weeks
study-conditions: in vivo, po, 0 mg/kg, 24 h, tissue Plasma, route gavage, dose level Control
The reply should be a number in g/dL, with the unit left off.

Observe how each entry below is paired with its result.
C=CCO = 5.6
COc1ccc(O)c(C(C)(C)C)c1.COc1ccc(O)cc1C(C)(C)C [BUTYLATED HYDROXYANISOLE] = 5.7
O=C1CN(/N=C/c2ccc(-c3ccc([N+](=O)[O-])cc3)o2)C(O)=N1 = 5.5
Cc1cnc(NC(=O)C2=C(O)c3ccccc3S(=O)(=O)N2C)s1 = 5.5

# compound CNCCC(Oc1ccc(C(F)(F)F)cc1)c1ccccc1.Cl (stereo unspecified) [FLUOXETINE HYDROCHLORIDE] ; its TP = 5.6

# compound `O=C1NC(=O)C(c2ccccc2)(c2ccccc2)N1` ; its TP = 5.6

# compound COc1ccc(Cl)cc1C(=O)NCCc1ccc(S(=O)(=O)NC(=O)NC2CCCCC2)cc1 [GLYBURIDE] ; its TP = 5.4

# compound `Cn1cnc([N+](=O)[O-])c1Sc1ncnc2nc[nH]c12` ; its TP = 5.6

# compound `Cc1cccc(Nc2cc(Cl)nc(SCC(=O)O)n2)c1C` ; its TP = 5.5

# compound S=C=Nc1cccc2ccccc12 [1-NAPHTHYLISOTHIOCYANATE] ; its TP = 5.6

# compound CS(=O)(=O)Nc1ccc([N+](=O)[O-])cc1Oc1ccccc1 [NIMESULIDE] ; its TP = 5.5

====

Species: Rattus norvegicus
protocol-description: Open TG-GATES - Regimen: Single
Format: toxicity, organism-based, Sprague-Dawley
Parameters: regimen Single, gender Male, age 6 weeks
study-conditions: in vivo, po, 0 mg/kg, 6 h, tissue Plasma, route gavage, dose level Control
readout: Ca
Record the result as a number with its unit.

Cn1cnc([N+](=O)[O-])c1Sc1ncnc2nc[nH]c12 = 10.4 mg/dL
CS(=O)(=O)Nc1ccc([N+](=O)[O-])cc1Oc1ccccc1 [NIMESULIDE] = 10.7 mg/dL
COc1ccc(O)c(C(C)(C)C)c1.COc1ccc(O)cc1C(C)(C)C [BUTYLATED HYDROXYANISOLE] = 10.9 mg/dL

We now examine a further molecule.
# molecule COc1ccc(Cl)cc1C(=O)NCCc1ccc(S(=O)(=O)NC(=O)NC2CCCCC2)cc1 [GLYBURIDE] ; its Ca = 10.9 mg/dL

====

Organism: Rattus norvegicus
protocol-description: Open TG-GATES - Regimen: Single
Format: toxicity, organism-based, Sprague-Dawley
Set-up: regimen Single, gender Male, age 6 weeks
study-conditions: in vivo, po, 0 mg/kg, 6 h, tissue Blood, route gavage, dose level Control
readout: Hb (g/dL)
The reply should be a number in g/dL, with the unit left off.

S=C=Nc1cccc2ccccc12 [1-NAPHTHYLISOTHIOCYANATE] = 13.4
C=CCO [ALLYL ALCOHOL] = 13.4
Cn1cnc([N+](=O)[O-])c1Sc1ncnc2nc[nH]c12 [AZATHIOPRINE] = 13.2
COc1ccc(Cl)cc1C(=O)NCCc1ccc(S(=O)(=O)NC(=O)NC2CCCCC2)cc1 [GLYBURIDE] = 13.6

# molecule O=C1NC(=O)C(c2ccccc2)(c2ccccc2)N1 [PHENYTOIN] ; its Hb = 13.3

# molecule O=C1CN(/N=C/c2ccc(-c3ccc([N+](=O)[O-])cc3)o2)C(O)=N1 [DANTROLENE] ; its Hb = 13.3

# molecule COc1ccc(O)c(C(C)(C)C)c1.COc1ccc(O)cc1C(C)(C)C [BUTYLATED HYDROXYANISOLE] ; its Hb = 13.3

# molecule CS(=O)(=O)Nc1ccc([N+](=O)[O-])cc1Oc1ccccc1 [NIMESULIDE] ; its Hb = 13.6
